# target desc: IRAK4 (Homo sapiens (Human), UniProt Q9NWZ3)
# Sequence (Q9NWZ3 whole entry): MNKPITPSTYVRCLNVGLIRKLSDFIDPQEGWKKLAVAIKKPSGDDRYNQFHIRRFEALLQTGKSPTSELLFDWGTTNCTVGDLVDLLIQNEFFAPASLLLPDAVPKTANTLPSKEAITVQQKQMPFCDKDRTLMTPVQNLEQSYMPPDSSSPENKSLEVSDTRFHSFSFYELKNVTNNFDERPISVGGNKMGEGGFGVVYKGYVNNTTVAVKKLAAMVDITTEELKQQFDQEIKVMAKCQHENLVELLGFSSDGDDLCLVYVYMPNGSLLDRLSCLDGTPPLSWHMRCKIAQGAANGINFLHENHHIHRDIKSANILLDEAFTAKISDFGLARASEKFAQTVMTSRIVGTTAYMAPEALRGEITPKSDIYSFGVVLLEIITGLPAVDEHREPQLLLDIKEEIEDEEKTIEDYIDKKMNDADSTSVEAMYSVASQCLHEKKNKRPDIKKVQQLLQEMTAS
# measurement protocol: IRAK4 Degradation HiBiT Assay
# assay conditions: read-out: Cellular IRAK4 HiBiT: DC50; Table 4; HiBiT-tagged Jurkat cells, 4 hrs
In this section we review reported DC50 values for a set of molecules.
Quick note: give the figure in nM, leave out the unit.

// solved cases for DC50 follow
CC(C)Nc1cc(-c2ccc3cc(C#N)cnn23)ncc1-c1nnc(N2CCN(C(=O)C3CCN(C[C@H]4CCN(c5ccc6c(c5)C(=O)N(C5CCC(=O)NC5=O)C6=O)C4)CC3)CC2)s1 (some centres unmarked) [Example 12] : 108
CC(C)Nc1cc(-c2ccc3cc(C#N)cnn23)ncc1-c1nnc(N2CCN(CC3CCN(c4cccc5c4n(C)c(=O)n5C4CCC(=O)NC4=O)CC3)CC2)s1 (centres unmarked) [Example 32] : 152
N#Cc1cnn2c(-c3cc(NC4CCOCC4)c(-c4nnc(C56CCC(NC(=O)CCOCCOCCOCCNc7cccc8c7C(=O)N(C7CCC(=O)NC7=O)C8=O)(CC5)CC6)s4)cn3)ccc2c1 (centres unmarked) [Example 2] : 27.8
CNc1cc(-c2ccc3cc(C#N)cnn23)ncc1-c1nnc([C@H]2CC[C@H](NC(=O)CCCC(=O)N[C@H](C(=O)N3C[C@H](O)C[C@H]3C(=O)NCc3ccc(-c4scnc4C)cc3)C(C)(C)C)CC2)s1 [Example 59] : 163

Now take the following molecule into account.
Request: Consider the molecule CC(C)Nc1cc(-c2ccc3cc(C#N)cnn23)ncc1-c1nnc(N2CCN(C(=O)C3CCN(CC4CCN(c5ccc6c(=O)n(C7CCC(=O)NC7=O)ccc6c5)CC4)CC3)CC2)s1 (centres unmarked) [Example 21] and give its recorded DC50.
Result: 251
